# Test System: Tissue alpha-L-fucosidase (Bos taurus) (UniProt Q2KIM0)
# Sequence (whole entry): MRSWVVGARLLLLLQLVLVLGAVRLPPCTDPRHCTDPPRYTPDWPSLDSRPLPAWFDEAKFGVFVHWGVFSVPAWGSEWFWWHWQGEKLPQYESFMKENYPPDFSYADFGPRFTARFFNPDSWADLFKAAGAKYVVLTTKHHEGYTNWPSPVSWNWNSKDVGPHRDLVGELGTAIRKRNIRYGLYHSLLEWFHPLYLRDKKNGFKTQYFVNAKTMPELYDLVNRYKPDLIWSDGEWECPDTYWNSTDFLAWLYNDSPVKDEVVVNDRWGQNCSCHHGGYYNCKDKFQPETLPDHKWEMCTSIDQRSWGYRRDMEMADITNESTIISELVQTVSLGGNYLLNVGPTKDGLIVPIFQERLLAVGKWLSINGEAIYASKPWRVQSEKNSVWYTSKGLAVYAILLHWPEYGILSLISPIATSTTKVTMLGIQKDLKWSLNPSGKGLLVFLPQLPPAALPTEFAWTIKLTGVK
# Protocol Notes: Inhibition of bovine kidney alpha-L-fucosidase at 1 mM by para-nitrophenolate release assay
Assay Metric: inhibition

Request: Bench note: what inhibition did O[C@@H]1[C@@H](O)C=NC12CC2 show?
Response: 19%

Request: Bench note: what inhibition did O[C@H]1[C@H](O)CNC2(CC2)[C@H]1O show?
Response: 83%

Request: Bench note: what inhibition did C[C@H]1NC[C@H](O)[C@H](O)[C@H]1O show?
Response: 99%

Request: Bench note: what inhibition did O[C@H]1C=NC2(CC2)[C@H]1O show?
Response: 76%

====

# Protocol Notes: Inhibition of Penicillium decumbens Alpha-L-rhamnosidase by para-nitrophenolate release assay
The label is met for Ki below 1000 nM and not met for Ki equal to or exceeding 1000 nM.

Request: Threshold test, Ki < 1000 nM: COc1ccc(C[C@@H]2NC[C@@H](O)[C@H]2O)cc1
Response: not met

Request: Threshold test, Ki < 1000 nM: C[C@@H]1NC[C@H](O)[C@H]1O
Response: not met

Request: Threshold test, Ki < 1000 nM: C[C@@H]1C[C@H](O)C2[C@@H](O)[C@@H](O)CN2C1 (single isomer, unassigned)
Response: met

Request: Threshold test, Ki < 1000 nM: C[C@@H]1N=C[C@H](O)[C@H]1O
Response: met

Request: Threshold test, Ki < 1000 nM: O[C@H]1C=NC2(CC2)[C@H]1O
Response: not met

Request: Threshold test, Ki < 1000 nM: COc1ccc(C[C@@H]2NC[C@H](O)[C@H]2O)cc1
Response: not met

====

Assignment: determine reported inhibition for the given compounds.
# System: Penicillium decumbens
# Protocol Notes: Inhibition of Penicillium decumbens Alpha-L-rhamnosidase at 1 mM by para-nitrophenolate release assay

Request: Bench note: what inhibition did O[C@@H]1[C@@H](O)C2(CC2)NC[C@@H]1O show?
Response: 72%

Request: Bench note: what inhibition did O[C@H]1C=NC2(CC2)[C@H]1O show?
Response: 87%

Request: Bench note: what inhibition did O[C@@H]1[C@@H](O)C=NC12CC2 show?
Response: 72%

Request: Bench note: what inhibition did C[C@@H]1NC[C@H](O)[C@H](O)[C@H]1O show?
Response: 0%

The reported numbers originate from ChEMBL document CHEMBL1152690.
